system.name: acetylcholine receptor
protocol: SPR, peptide at 10 µM on acetylcholine receptor
measured.parameter: Binding affinity (RU)
State just the number; it will be interpreted in RU.

Need Binding affinity (RU) of KSYYK [5mer-350] , thanks. 59

Need Binding affinity (RU), item KSRTR [5mer-80] 83

Consider the binder shown here: KLYRR [5mer-72] What is its recorded Binding affinity (RU)? 50

What value of Binding affinity (RU) has been recorded for this entry: RSVCR [5mer-372] 54

Entry KVFRR [5mer-391] : reported Binding affinity (RU) = ? 72

Would you kindly share the measured Binding affinity (RU) for KWRQK [5mer-77] ? 74

Any idea what its Binding affinity (RU) is? The binder is RQIQK [5mer-91] 55

What value of Binding affinity (RU) has been reported for the following binder? KQVLR [5mer-356] 65

Which measured Binding affinity (RU) value corresponds to KRIRR [5mer-368] ? 50

I am curious: what Binding affinity (RU) value has been reported for RSRSR [5mer-69] ? 50

# lookup: Binding affinity (RU) of RQITR [5mer-87] 55

Using the record for KRYLK [5mer-380] , report its Binding affinity (RU). 82

I'd like to know its Binding affinity (RU). The binder in question is KWLQR [5mer-54] 66

Give its Binding affinity (RU) value. Item: KQRLK [5mer-362] 62

Give the measured Binding affinity (RU) of RVLYR [5mer-96] . 55

Bench note: what Binding affinity (RU) did KRITK [5mer-89] show? 77

For the binder KGFYK [5mer-377] , what Binding affinity (RU) is on record? 67
